Would you mind telling me the reported EC50 of each entry?
molecular target: Heat shock factor protein 1 (Mus musculus, UniProt P38532); experiment: inhibition of MG132-induced HSE-luciferase signal, confirmation, cell-based, NIH3T3, luminescence, dose retest (AID 2382); assay type: functional;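 also: NIH3T3 fibroblasts with HSF1-driven luciferase reporter stressed by proteasome inhibitor MG132; luminescence from HSF1-driven luciferase expression after 8 hours of MG132 stress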
Sequence (P38532 whole entry): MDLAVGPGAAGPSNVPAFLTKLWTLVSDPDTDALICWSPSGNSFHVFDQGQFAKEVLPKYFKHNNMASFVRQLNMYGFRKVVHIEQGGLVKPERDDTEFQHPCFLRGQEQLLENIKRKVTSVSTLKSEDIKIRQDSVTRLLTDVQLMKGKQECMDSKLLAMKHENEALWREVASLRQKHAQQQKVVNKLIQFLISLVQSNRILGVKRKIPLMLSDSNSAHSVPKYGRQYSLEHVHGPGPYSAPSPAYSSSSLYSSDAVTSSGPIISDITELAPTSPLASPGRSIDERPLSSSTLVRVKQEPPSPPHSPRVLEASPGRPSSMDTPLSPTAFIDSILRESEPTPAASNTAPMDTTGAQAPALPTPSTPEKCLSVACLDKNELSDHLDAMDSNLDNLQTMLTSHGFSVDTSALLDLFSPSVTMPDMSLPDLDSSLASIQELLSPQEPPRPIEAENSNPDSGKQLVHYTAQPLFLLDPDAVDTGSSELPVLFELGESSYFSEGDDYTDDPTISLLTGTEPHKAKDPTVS
Calls of active or inactive are those of the source.

*Q* Enter reported EC50 observed with Heat shock factor protein 1 (Mus musculus, UniProt P38532) for COc1ccc(C(=O)C2CCCN(S(=O)(=O)c3ccccc3F)C2)c(C)c1 (stereo not given)
*A* > 195 µM (not active)

*Q* Also `N#Cc1cc2c(nc1SCC(=O)N1CCOCC1)CCCCC2` , if possible.
*A* 2.01 µM (active)

*Q* Also `Cc1ccc(-c2nc3cnccn3c2Nc2c(C)cccc2C)o1` , if possible.
*A* > 195 µM (not active)

*Q* Also `O=C(O)c1cccc(COc2ccccc2Cl)c1` , if possible.
*A* 1.06 µM (active)

*Q* Also `Cc1ccc(-c2csc(NC(=O)c3ccc(S(=O)(=O)N4CCc5ccccc54)cc3)n2)cc1` , if possible.
*A* > 195 µM (not active)

---

biological target: Cytochrome P450 3A4 (Homo sapiens, UniProt P08684);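 also: CYP3A4 tested as one member of a cytochrome P450 panel screen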
Sequence (P08684 whole entry): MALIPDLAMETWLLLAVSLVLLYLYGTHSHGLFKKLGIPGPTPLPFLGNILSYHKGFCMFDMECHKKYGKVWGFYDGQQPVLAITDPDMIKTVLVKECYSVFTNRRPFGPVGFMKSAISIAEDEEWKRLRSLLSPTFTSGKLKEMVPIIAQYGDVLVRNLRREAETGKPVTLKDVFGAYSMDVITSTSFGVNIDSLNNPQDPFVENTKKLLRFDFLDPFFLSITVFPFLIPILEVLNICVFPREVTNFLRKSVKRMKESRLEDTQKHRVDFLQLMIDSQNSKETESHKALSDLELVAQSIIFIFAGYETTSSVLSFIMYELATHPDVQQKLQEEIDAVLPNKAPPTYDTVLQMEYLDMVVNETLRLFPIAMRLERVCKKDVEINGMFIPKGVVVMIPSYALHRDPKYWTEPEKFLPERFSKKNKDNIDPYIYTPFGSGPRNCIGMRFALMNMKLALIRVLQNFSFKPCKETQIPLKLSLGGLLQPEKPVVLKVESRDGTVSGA
attribute measured: AC50

*Q* // returns reported AC50 for input `CSc1nc(Sc2cccc(Cl)c2)c2ccccc2n1`
*A* 35.5 µM (inconclusive)

*Q* Also CCc1ccccc1N=C(S)NC1CC2CCC(C1)N2Cc1ccco1 (stereo not drawn) , if possible.
*A* 20 µM (inconclusive)

*Q* Also `CN1CCN(c2ncncc2-c2ccc(N(C)C)cc2)CC1` , if possible.
*A* 2 µM (inconclusive)

---

molecular target: RNA-binding protein pos-1 (Caenorhabditis elegans); test: inhibitors of POS-1/mex-3 RNA binding, dose response, biochemical, fluorescence polarization (AID 1964);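 also: purified POS-1 fused to maltose binding protein made in E. coli; potency of compounds blocking POS-1 binding to fluorescent RNA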
Sequence (G5EF15 whole entry, the tested form may be a part): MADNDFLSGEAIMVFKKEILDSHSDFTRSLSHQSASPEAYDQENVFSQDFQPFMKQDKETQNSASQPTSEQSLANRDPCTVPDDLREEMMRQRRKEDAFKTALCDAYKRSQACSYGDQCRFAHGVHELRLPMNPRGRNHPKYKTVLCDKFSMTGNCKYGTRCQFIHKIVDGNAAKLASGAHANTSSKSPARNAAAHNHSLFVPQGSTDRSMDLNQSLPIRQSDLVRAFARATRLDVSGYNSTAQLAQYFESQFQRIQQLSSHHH
Activity calls are given as the source filed them.
attribute measured: EC50

*Q* // returns reported EC50 for input `CCCNC(=O)c1ccc2c(O)c(O)c(-c3ccc(F)cc3)nc2c1`
*A* 7.74 µM (inconclusive)

*Q* Also `O=C1NC(=O)N(CCc2ccc(F)cc2)C(=O)/C1=C/NNC(=O)c1ccccc1` , if possible.
*A* > 300 µM (not active)

*Q* Also `COc1cc(/C=C2\CCc3c2nc2ccccc2c3C(=O)O)cc(OC)c1OC` , if possible.
*A* 94 µM (active)
